Catalogue of HDL-cholesterol change relative to control (%) values
Species on record: Rattus norvegicus
assay-method-text: Activity to induce the elevation of HDL(High Density Lipoproteins)-Cholesterol of male Wistar rats
Assay type: functional
Set-up: concentration or dose not given beside the values
State the answer as a number, implicitly in %.

Inquiry: // Input: CC(C)OP(=O)(OC(C)C)OC(c1ccc(Cl)cc1)P(=O)(OC(C)C)OC(C)C (configuration not stated) . Output its HDL-cholesterol change relative to control (%) only.
Reply text: -34

Inquiry: // Input: CCOP(=O)(OCC)OC(c1ccc(Cl)cc1)P(=O)(OCC)OCC (configuration not stated) . Output its HDL-cholesterol change relative to control (%) only.
Reply text: 15

Inquiry: // Input: CCCCCC(O)(P(=O)(OC)OC)P(=O)(OC)OC . Output its HDL-cholesterol change relative to control (%) only.
Reply text: -16

Inquiry: // Input: COP(=O)(OC)OC(C(C)(C)c1ccc(Cl)cc1)P(=O)(OC)OC (configuration not stated) . Output its HDL-cholesterol change relative to control (%) only.
Reply text: 56

Inquiry: // Input: COP(=O)(O)C(CCCc1ccccc1)P(=O)(O)OC (configuration not stated) . Output its HDL-cholesterol change relative to control (%) only.
Reply text: -9

Inquiry: // Input: COP(=O)(OC)OC(c1ccc(C(=O)c2ccc(Cl)cc2)cc1)P(=O)(OC)OC (configuration not stated) . Output its HDL-cholesterol change relative to control (%) only.
Reply text: 33

Inquiry: // Input: O=P(O)(O)C(Cc1ccccc1)P(=O)(O)O . Output its HDL-cholesterol change relative to control (%) only.
Reply text: -8

Inquiry: // Input: COc1ccc(C(OP(=O)(OC)OC)P(=O)(OC)OC)cc1 (configuration not stated) . Output its HDL-cholesterol change relative to control (%) only.
Reply text: 0

Inquiry: // Input: CCOP(=O)(OCC)C(CCCOc1ccccc1)P(=O)(OCC)OCC . Output its HDL-cholesterol change relative to control (%) only.
Reply text: 16

Inquiry: // Input: COP(=O)(OC)OC(C(C)C)P(=O)(OC)OC (configuration not stated) . Output its HDL-cholesterol change relative to control (%) only.
Reply text: 15

Value source: ChEMBL document CHEMBL1123811
